Before we begin, note that these Ki values for UniProt:P56718 originate from several publications.
Sequence (P56718 whole entry, looked up): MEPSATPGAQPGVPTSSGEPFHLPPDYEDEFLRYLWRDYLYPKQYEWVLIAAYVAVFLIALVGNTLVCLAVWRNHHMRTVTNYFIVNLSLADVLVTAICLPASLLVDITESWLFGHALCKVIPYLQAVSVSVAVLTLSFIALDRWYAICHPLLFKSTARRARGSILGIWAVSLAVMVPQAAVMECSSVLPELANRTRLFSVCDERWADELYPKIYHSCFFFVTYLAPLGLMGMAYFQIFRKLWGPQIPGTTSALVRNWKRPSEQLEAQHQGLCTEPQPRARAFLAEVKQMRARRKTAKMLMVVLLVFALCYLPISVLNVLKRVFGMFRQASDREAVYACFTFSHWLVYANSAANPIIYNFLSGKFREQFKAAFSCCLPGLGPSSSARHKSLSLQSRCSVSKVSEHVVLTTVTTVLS
Recorded Endpoint: Ki (nM)

Solved cases (3 shown):
C[C@@H]1CC[C@@H](COc2ccc(F)cn2)CN1C(=O)c1cc(F)ccc1-n1nccn1 | 6.8
Cc1cccc(C(=O)N2[C@H](C)[C@H]3C[C@@H](Oc4ccc(C(F)(F)F)nc4)[C@@H]2C3)c1-n1nccn1 (relative stereo) | 90
Cc1ccc(-n2nccn2)c(C(=O)N2[C@H](C)[C@H]3C[C@@H](Nc4ccc(C(F)(F)F)cn4)[C@@H]2C3)n1 (relative stereo) | 3

1. COc1ccc(C(=O)N2[C@H](C)[C@H]3C[C@@H](Oc4ccc(C(F)(F)F)cn4)[C@@H]2C3)c(-n2nccn2)c1 (relative stereo)
2. Cc1ccc(-c2ncccn2)c(C(=O)N2CCC[C@@H](Nc3cnc(C(F)(F)F)cn3)[C@@H]2C)n1
Ask | Problem: Given the entries 1 and 2 , determine which has the lower reported Ki. Write the label of whichever entry you select.
Reply | 1

a. C[C@@H]1[C@H]2C[C@@H](Oc3ccc(C(F)(F)F)cn3)[C@H](C2)N1C(=O)c1cc2ccccc2nc1OCCF
b. C[C@@H]1CC[C@@H](COc2ccc(F)cn2)CN1C(=O)c1c(F)cccc1-c1ncccn1
Ask | Hi! Which is lower in terms of Ki, the first one a or the second one b ? Mark your selection by writing its label.
Reply | b

---

pKi: −log10 of the molar value.
rat orexin 1 receptor (Rattus norvegicus) pKi, compiled from various sources.
Recorded Endpoint: pKi

I. C[C@@H]1[C@H]2C[C@@H](Oc3ccc(C(F)(F)F)cn3)[C@H](C2)N1C(=O)c1cccc(-c2ccc(F)cc2)c1
II. COc1c(F)cccc1C(=O)N1CCC[C@@H](Nc2ccc(C(F)(F)F)cn2)[C@@H]1C (racemic)
III. C[C@@H]1CC[C@@H](COc2ccc(F)cn2)CN1C(=O)c1cc(C(=O)O)ccc1-n1nccn1
IV. C[C@@H]1[C@H]2C[C@@H](Oc3ccc(C(F)(F)F)cn3)[C@H](C2)N1C(=O)c1cccc(F)c1-n1nccn1 (relative stereo)
V. Cc1ccc(-c2ncccn2)c(C(=O)N2[C@H](C)[C@H]3C[C@@H](Oc4ccc(C(F)F)cn4)[C@@H]2C3)n1
Ask | // sort listed items: pKi descending Answer format: the labels, ordered as requested.
Reply | IV, V, III, II, I

I. Cc1ccc(C(=O)N2CCC[C@@H](Oc3ncc(C(F)(F)F)cn3)[C@@H]2C)c(-n2nccn2)c1
II. Cc1ccc(Br)c(C(=O)N2C(C)C3CC(Nc4cnc(C(F)(F)F)cn4)C2C3)n1 (racemic)
Ask | Given the listed items, does I or II have the lesser reported pKi? # answer = label of selected item
Reply | II

A. CC1C2CC(Oc3ccc(C(F)(F)F)cn3)C(C2)N1C(=O)c1cccc(F)c1-c1ncco1 (racemic)
B. C[C@@H]1CC[C@@H](COc2ccc(F)cn2)CN1C(=O)c1ccccc1-c1ncccn1
Ask | Which value of pKi is greater, the one for A or the one for B ? State your choice using its label.
Reply | A
(A: 8.10, B: 7.77)

---

Consider the following Ki data for rat orexin 1 receptor (Rattus norvegicus), collected from several reports.
Recorded Endpoint: Ki (nM)

Check out these entries, answers already filled in.
CC1C2CC(Nc3cnc(C(F)(F)F)cn3)C(C2)N1C(=O)c1cccc(F)c1-c1ncccn1 (single isomer, unassigned) | 16
C[C@@H]1[C@H]2C[C@@H](Oc3ccc(C(F)(F)F)cn3)[C@H](C2)N1C(=O)c1cc(OCCBr)ccc1-n1nccn1 | 71
Cc1ccc(C(=O)N2CCC[C@@H](Oc3ccc(C(F)(F)F)cn3)[C@@H]2C)c(-n2nccn2)c1 | 8
Cc1ccc(-n2nccn2)c(C(=O)N2[C@H](C)[C@H]3C[C@@H](Oc4cnc(C(F)(F)F)cn4)[C@@H]2C3)n1 (relative stereo) | 24
C[C@@H]1CC[C@@H](COc2ccc(F)cn2)CN1C(=O)c1ccccc1-n1nccn1 | 12

a. C[C@@H]1[C@H]2C[C@@H](Oc3ccc(C(F)(F)F)nc3)[C@H](C2)N1C(=O)c1ccccc1-n1nccn1 (relative stereo)
b. O=C(c1c(F)cccc1-c1ncco1)N1C(CF)C2CC(Oc3ccc(C(F)(F)F)cn3)C1C2 (racemic)
c. C[C@@H]1CC[C@@H](COc2ccc(F)cn2)CN1C(=O)c1cc(CO)ccc1-n1nccn1
Ask | Rank the 3 compounds: largest Ki first, smallest last. Your answer should be the labels, listed in the requested order.
Reply | a, b, c
